ASSAY_SYSTEM: TAFIa (Homo sapiens (Human))
ASSAY_REMARKS: TAFIa inhibition, Actichrome plasma TAFI Activity Kit (American Diagnostica)
MEASUREMENT_CONTEXT: chromogenic read-out at 420 nm, 15 min preincubation at room temperature, pH 7.4, duplicate determination
Protocol: The prepared substances were tested for TAFIa inhibition using the Actichrome plasma TAFI Activity Kit from American Diagnostica (Pr. No. 874). […] The time course of the reaction was followed at 420 nm in a microtiter plate reader (SpectraMax plus 384; Molecular Devices) for 15 minutes. The IC50 values were calculated from the averaged values (duplicate determination) of serial dilutions of the substance with the aid of the Softmax Pro software (version 4.8; Molecular Devices).
pIC50: −log10 of the molar value.
PARAMETER: pIC50

COMPOUND	ASSAY_SYSTEM	pIC50
CC(C)[C@H]1COCCNC(=O)c2ccc(cc2)C[C@@H](NC(=O)N[C@@H](Cc2ccc(N)nc2)C(=O)O)C(=O)N1	TAFIa (Homo sapiens (Human))	7.40
CC(C)[C@H]1COCCCCCCCC[C@@H](NC(=O)N[C@@H](CCCCN)C(=O)O)C(=O)N1	TAFIa (Homo sapiens (Human))	7.77
CC(C)[C@H]1COCCCCOc2ccc(cc2)C[C@@H](NC(=O)N[C@@H](CCCCN)C(=O)O)C(=O)N1	TAFIa (Homo sapiens (Human))	8.22

[A] CC(C)[C@H]1COCCCCOc2ccc(cc2)C[C@@H](NC(=O)N[C@@H](CS(=O)(=O)CCN)C(=O)O)C(=O)N1
[B] CC1(C)COCCCCOc2ccc(cc2)C[C@@H](NC(=O)N[C@@H](CCCCN)C(=O)O)C(=O)N1
[C] NCCCC[C@H](NC(=O)N[C@@H]1Cc2ccc(cc2)OCCCCOC[C@H](Cc2ccccc2)NC1=O)C(=O)O
INPUT: Give the ascending ranking of the items by reported pIC50. Please respond by ranking the labels in the order requested.
OUTPUT: A, B, C

[P] CC(C)[C@H]1COCC(O)C(O)COc2ccc(cc2)C[C@@H](NC(=O)N[C@@H](CCCCN)C(=O)O)C(=O)N1 (stereo partly drawn)
[Q] CC(C)[C@H]1COCCCCOc2ccc(cc2)C[C@@H](NC(=O)N[C@@H](Cc2ccc(N)nc2)C(=O)O)C(=O)N1
INPUT: I would appreciate it if you could say which entry, P or Q , has the lower pIC50 value. Use the label to indicate which entry you chose.
OUTPUT: P

[A] Nc1ccc(C[C@H](NC(=O)N[C@@H]2Cc3ccc(cc3)OCCCCOC[C@H](C3CC3)NC2=O)C(=O)O)cn1
[B] CC(C)[C@H]1COCCCCOc2ccc(cc2F)C[C@@H](NC(=O)N[C@@H](Cc2ccc(N)nc2)C(=O)O)C(=O)N1
INPUT: Please state the entry with greater pIC50 among A and B . Use the label to indicate which entry you chose.
OUTPUT: B
(B: 7.92, A: 7.49)

[I] CC(C)[C@H]1COCCCCc2ccc(cc2)C[C@@H](NC(=O)N[C@@H](Cc2ccc(N)nc2)C(=O)O)C(=O)N1
[II] NCCCC[C@H](NC(=O)N[C@@H]1Cc2ccc(cc2)OCCCCOC[C@H](c2ccccc2)NC1=O)C(=O)O
INPUT: Please state the entry with greater pIC50 among I and II . Use the label to indicate which entry you chose.
OUTPUT: I

* * *

ASSAY_SYSTEM: TAFIa (Homo sapiens (Human), UniProt Q96IY4)
Sequence (Q96IY4 115-423): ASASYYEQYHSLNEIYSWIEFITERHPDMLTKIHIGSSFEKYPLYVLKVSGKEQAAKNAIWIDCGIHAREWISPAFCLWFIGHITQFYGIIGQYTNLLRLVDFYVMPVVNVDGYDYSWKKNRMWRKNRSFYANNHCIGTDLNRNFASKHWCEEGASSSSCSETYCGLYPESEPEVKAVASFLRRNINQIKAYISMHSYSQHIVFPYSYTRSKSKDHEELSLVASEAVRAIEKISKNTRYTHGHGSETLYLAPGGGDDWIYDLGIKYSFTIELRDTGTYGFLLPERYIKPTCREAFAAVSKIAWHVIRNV
ASSAY_REMARKS: TAFIa inhibition, Actichrome plasma TAFI Activity Kit (American Diagnostica)
MEASUREMENT_CONTEXT: chromogenic read-out at 420 nm, 15 min preincubation at room temperature, pH 7.4, duplicate determination
Method: The prepared substances were tested for TAFIa inhibition using the Actichrome plasma TAFI Activity Kit from American Diagnostica (Pr. No. 874). […] The time course of the reaction was followed at 420 nm in a microtiter plate reader (SpectraMax plus 384; Molecular Devices) for 15 minutes. The IC50 values were calculated from the averaged values (duplicate determination) of serial dilutions of the substance with the aid of the Softmax Pro software (version 4.8; Molecular Devices).
PARAMETER: IC50 (µM)

MOL_SMILES	ASSAY_SYSTEM	RESULT_UNIT	IC50
CC(C)[C@H]1COCCC(=O)Nc2ccc(cc2)C[C@@H](NC(=O)N[C@@H](CCCCN)C(=O)O)C(=O)N1	TAFIa (Homo sapiens (Human), UniProt Q96IY4)	µM	0.022
CC(C)[C@H]1COCCCCn2cnc(c2)C[C@@H](NC(=O)N[C@@H](Cc2ccc(N)nc2)C(=O)O)C(=O)N1	TAFIa (Homo sapiens (Human), UniProt Q96IY4)	µM	0.052
C[C@H]1COCCCCOc2ccc(cc2)C[C@@H](NC(=O)N[C@@H](CCCCN)C(=O)O)C(=O)N1	TAFIa (Homo sapiens (Human), UniProt Q96IY4)	µM	0.029
CC(C)[C@H]1COCCCCOC[C@@H](NC(=O)N[C@@H](Cc2ccc(N)nc2)C(=O)O)C(=O)N1	TAFIa (Homo sapiens (Human), UniProt Q96IY4)	µM	0.055
NCCCC[C@H](NC(=O)N[C@@H]1Cc2ccc(cc2)OCCCCOCCNC1=O)C(=O)O	TAFIa (Homo sapiens (Human), UniProt Q96IY4)	µM	9.04

[1] CC(C)[C@H]1COC/C=C/COc2ccc(cc2)C[C@@H](NC(=O)N[C@@H](CCCCN)C(=O)O)C(=O)N1
[2] CC(C)(C)[C@H]1COCCCCOc2ccc(cc2)C[C@@H](NC(=O)N[C@@H](CCCCN)C(=O)O)C(=O)N1
INPUT: Please state the entry with greater IC50 among 1 and 2 . Use the label to indicate which entry you chose.
OUTPUT: 2

* * *

ASSAY_SYSTEM: UniProtKB Q96IY4
ASSAY_REMARKS: TAFIa inhibition, Actichrome plasma TAFI Activity Kit (American Diagnostica)
MEASUREMENT_CONTEXT: chromogenic read-out at 420 nm, 15 min preincubation at room temperature, pH 7.4, duplicate determination
Description: The prepared substances were tested for TAFIa inhibition using the Actichrome plasma TAFI Activity Kit from American Diagnostica (Pr. No. 874). […] The time course of the reaction was followed at 420 nm in a microtiter plate reader (SpectraMax plus 384; Molecular Devices) for 15 minutes. The IC50 values were calculated from the averaged values (duplicate determination) of serial dilutions of the substance with the aid of the Softmax Pro software (version 4.8; Molecular Devices).
pIC50: −log10 of the molar value.
PARAMETER: pIC50

Example cases with answers are listed next.
COMPOUND	pIC50
NCCCC[C@H](NC(=O)N[C@@H]1Cc2ccc(cc2)OCCCCOC[C@H](C2CCCCC2)NC1=O)C(=O)O	6.09
CC(C)[C@H]1COCC(O)C(O)COc2ccc(cc2)C[C@@H](NC(=O)NC(Cc2ccc(N)nc2)C(=O)O)C(=O)N1 (stereo partly shown)	7.23

[a] CC[C@H]1COCCCCOc2ccc(cc2)C[C@@H](NC(=O)N[C@@H](CCCCN)C(=O)O)C(=O)N1
[b] CC(C)[C@H]1COCCCCCCCCOc2ccc(cc2)C[C@@H](NC(=O)N[C@@H](CCCCN)C(=O)O)C(=O)N1
INPUT: I would appreciate it if you could say which entry, a or b , has the lower pIC50 value. Use the label to indicate which entry you chose.
OUTPUT: a

meta.source: patent US9688645B2
